A collection of compounds and their measured % T/C
System: P388 murine leukemia
Experiment: In vivo antitumor activity against P388 leukemia (ip tumor implant / ip drug);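 also: dosing started the day after tumor implantation, and %T/C expresses median survival of treated mice relative to the saline-treated control group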
Conditions: dose 0.05 mg/kg/day ip, once daily for five days; >=125 considered significant
Starred links: 1 amine or outer side, 2 acyl side, 3 side chain; linkers in the order of their positions; H or OH if unused. Positions of bridges follow the written chain, without caps; N, C: chain ends. Non-standard residues stand in square brackets, D forms with d. Residues, ends and D or L forms follow the SMILES beside them. Chains are numbered I, II in the order given. ξ: configuration not given here. *: point of attachment. X2 = CC(C)C(=O)OC1CC=NN([*:1])C1C(=O)[*:2]; ξNMeVal(3-OH) = CNC(C(=O)O)C(C)(C)O; X1 = COc1ccc2nc(C(=O)*)cnc2c1; Sar = CNCC(=O)O
Numbers only; they are read as %.

A selection of reference data follows.
compound: COc1ccc2nc(C(=O)NC3COC(=O)C(C(C)(C)O)N(C)C(=O)CN(C)C(=O)CNC(=O)C4C(OC(=O)CC(C)C)CC=NN4C(=O)C(NC(=O)c4cnc5cc(OC)ccc5n4)COC(=O)C(C(C)(C)O)N(C)C(=O)CN(C)C(=O)CNC(=O)C4C(OC(=O)CC(C)C)CC=NN4C3=O)cnc2c1 (centres unmarked)
number: 175

compound: COc1ccc2nc(C(=O)NC3COC(=O)C(C(C)(C)O)N(C)C(=O)CN(C)C(=O)CNC(=O)C4C(OC(=O)C(C)C)CC=NN4C(=O)C(NC(=O)c4cnc5cc(OC)ccc5n4)COC(=O)C(C(C)(C)O)N(C)C(=O)CN(C)C(=O)CNC(=O)C4C(OC(=O)C(C)C)CC=NN4C3=O)cnc2c1 (centres unmarked) [BMY-45012] (I: X1-S[X2]G[Sar][ξNMeVal(3-OH)] / II: X1-S[X2]G[Sar][ξNMeVal(3-OH)]; ester I:1-II:C, I:C-II:1; configuration not given here)
number: 145

compound: CCC(=O)OC1CC=NN2C(=O)C(NC(=O)c3cnc4cc(OC)ccc4n3)COC(=O)C(C(C)(C)O)N(C)C(=O)CN(C)C(=O)CNC(=O)C3C(OC(C)=O)CC=NN3C(=O)C(NC(=O)c3cnc4cc(OC)ccc4n3)COC(=O)C(C(C)(C)O)N(C)C(=O)CN(C)C(=O)CNC(=O)C12 (centres unmarked)
number: 135

compound: CCC(=O)OC1CC=NN2C(=O)C(NC(=O)c3cnc4cc(OC)ccc4n3)COC(=O)C(C(C)(C)O)N(C)C(=O)CN(C)C(=O)CNC(=O)C3C(OC(=O)C(C)C)CC=NN3C(=O)C(NC(=O)c3cnc4cc(OC)ccc4n3)COC(=O)C(C(C)(C)O)N(C)C(=O)CN(C)C(=O)CNC(=O)C12 (centres unmarked)
number: 155

Next up:
Data request: % T/C lookup needed for COc1ccc2nc(C(=O)NC3COC(=O)C(C(C)(C)O)N(C)C(=O)CN(C)C(=O)CNC(=O)C4C(OC(=O)C(C)C)CC=NN4C(=O)C(NC(=O)c4cnc5cc(OC)ccc5n4)COC(=O)C(C(C)(C)O)N(C)C(=O)CN(C)C(=O)CNC(=O)C4C(OC(=O)CC(C)C)CC=NN4C3=O)cnc2c1 (centres unmarked) , thanks.
Data returned: 140

Each recorded value in this set is attributed to patent US5643871A.
